Values were extracted from paper PMC6222329.

# measured.on: BChE (Equine) (Equus caballus)
# Construct: purchased Sigma-Aldrich (Steinheim, Germany)
# Sequence (P81908 whole entry): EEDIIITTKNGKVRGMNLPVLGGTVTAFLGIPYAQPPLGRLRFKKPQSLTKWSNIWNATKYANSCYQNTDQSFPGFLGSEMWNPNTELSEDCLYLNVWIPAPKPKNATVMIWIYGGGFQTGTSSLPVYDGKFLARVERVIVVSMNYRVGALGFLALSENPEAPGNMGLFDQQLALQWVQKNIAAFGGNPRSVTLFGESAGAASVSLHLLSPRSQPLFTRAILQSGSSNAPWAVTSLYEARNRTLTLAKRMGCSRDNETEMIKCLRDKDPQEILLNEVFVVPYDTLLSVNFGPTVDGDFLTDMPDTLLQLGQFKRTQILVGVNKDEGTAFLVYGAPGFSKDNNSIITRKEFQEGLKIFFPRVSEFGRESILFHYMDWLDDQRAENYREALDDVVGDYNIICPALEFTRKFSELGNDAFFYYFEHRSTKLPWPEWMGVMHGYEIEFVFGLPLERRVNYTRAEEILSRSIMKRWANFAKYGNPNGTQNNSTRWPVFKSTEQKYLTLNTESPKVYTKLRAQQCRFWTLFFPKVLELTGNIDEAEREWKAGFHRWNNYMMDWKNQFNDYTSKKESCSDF
# test.method.notes: biochemical
# Type: biochemical
# experimental.parameters: 10^-3 M
# Method: The assay was performed in two steps. All enzymes were obtained from Sigma-Aldrich (Steinheim, Germany). Ellman’s reagent and the substrates were obtained from Fluka (Buchs, Switzerland). The chemicals used to prepare the buffer solution were purchased from Merck (Darmstadt, Germany). The enzyme inhibitory activities of the synthesized compounds were investigated by applying Ellman’s method. […] All readings were adjusted with blank-reading. […]
Classification by BChE (Equine) inhibitory activity (%) ± SD | ranges: interval 1 = under 80%, interval 2 = from 80% up to 90%, interval 3 = 90% and over

>>> df
                                 mol_smiles  category_label
0  O=C(CSC(=S)N1CCN(C2CCCCC2)CC1)Nc1c2ccccc2nc2ccccc12      interval 2
1  O=C(CSC(=S)N1CCN(C(c2ccccc2)c2ccccc2)CC1)Nc1c2ccccc2nc2ccccc12      interval 3
2  COc1ccc(N2CCN(C(=S)SCC(=O)Nc3c4ccccc4nc4ccccc34)CC2)cc1      interval 2
3  O=C(CSC(=S)N1CCN(c2ccccc2)CC1)Nc1c2ccccc2nc2ccccc12      interval 1
4  O=C(CSC(=S)N1CCN(c2ccc(F)cc2)CC1)Nc1c2ccccc2nc2ccccc12      interval 3
5  O=C(CSC(=S)N1CCN(Cc2ccccc2)CC1)Nc1c2ccccc2nc2ccccc12      interval 1
6  O=C(CSC(=S)N1CCC(Cc2ccccc2)CC1)Nc1c2ccccc2nc2ccccc12      interval 1

----------
# reported BChE (Human) inhibitory activity (%) ± SD; entries follow
# measured.on: BChE (Human) (Homo sapiens, UniProt P06276)
# Construct: purchased Sigma-Aldrich (Steinheim, Germany)
# Sequence (P06276 29-602): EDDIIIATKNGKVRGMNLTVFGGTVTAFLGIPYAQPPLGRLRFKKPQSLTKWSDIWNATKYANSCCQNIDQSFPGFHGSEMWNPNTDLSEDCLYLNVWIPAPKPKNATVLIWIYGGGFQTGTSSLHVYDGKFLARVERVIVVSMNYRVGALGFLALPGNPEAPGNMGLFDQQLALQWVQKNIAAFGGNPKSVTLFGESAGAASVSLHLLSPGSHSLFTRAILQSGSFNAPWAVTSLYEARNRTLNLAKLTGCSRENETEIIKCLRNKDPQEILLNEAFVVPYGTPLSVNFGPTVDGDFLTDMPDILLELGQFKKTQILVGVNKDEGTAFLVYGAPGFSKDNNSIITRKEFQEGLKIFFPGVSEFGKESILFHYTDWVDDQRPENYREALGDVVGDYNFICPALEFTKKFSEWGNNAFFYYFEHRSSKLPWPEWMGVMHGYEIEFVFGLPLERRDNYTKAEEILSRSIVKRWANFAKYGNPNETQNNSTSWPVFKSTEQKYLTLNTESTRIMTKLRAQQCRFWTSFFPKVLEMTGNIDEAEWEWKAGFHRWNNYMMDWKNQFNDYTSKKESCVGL
# test.method.notes: BChE inhibition, Ellman's method
# Format: biochemical
# experimental.parameters: 10^-4 M
measure.name: BChE (Human) inhibitory activity (%) ± SD

>>> df
                                  mol_smiles  observed_value
 0  O=C(CSC(=S)N1CCN(Cc2ccccc2)CC1)Nc1c2ccccc2nc2ccccc12           20.65
 1  O=C(CSC(=S)N1CCN(c2ncccn2)CC1)Nc1c2ccccc2nc2ccccc12           30.77
 2  O=C(CSC(=S)N1CCOCC1)Nc1c2ccccc2nc2ccccc12           43.29
 3  O=C(CSC(=S)N1CCN(c2ccc(F)cc2)CC1)Nc1c2ccccc2nc2ccccc12           40.71
 4  O=C(CSC(=S)N1CCCCC1)Nc1c2ccccc2nc2ccccc12           34.99
 5  CN1CCN(C(=S)SCC(=O)Nc2c3ccccc3nc3ccccc23)CC1           35.97
 6  COc1ccc(N2CCN(C(=S)SCC(=O)Nc3c4ccccc4nc4ccccc34)CC2)cc1           15.58
 7  O=C(CSC(=S)N1CCN(c2ccc([N+](=O)[O-])cc2)CC1)Nc1c2ccccc2nc2ccccc12           45.26
 8  CCN1CCN(C(=S)SCC(=O)Nc2c3ccccc3nc3ccccc23)CC1           20.55
 9  O=C(CSC(=S)N1CCC(Cc2ccccc2)CC1)Nc1c2ccccc2nc2ccccc12           31.21
10  O=C(CSC(=S)N1CCN(C(=O)c2ccco2)CC1)Nc1c2ccccc2nc2ccccc12           42.48
11  O=C(CSC(=S)N1CCN(C2CCCCC2)CC1)Nc1c2ccccc2nc2ccccc12           42.60
12  O=C(CSC(=S)N1CCN(c2ccccc2)CC1)Nc1c2ccccc2nc2ccccc12           15.67
